The values you see were collected from PubChem BioAssay (NCI).

Test system: UACC-62 melanoma
Assay: NCI-60 one-dose screen, 48 h
Settings: 10 µM unless noted
This is part of a sample that, as a whole, favours compounds with a hit. Of some 83,000 tested, about 20% had one in any assay. Activity calls are given as the source filed them. The calls were made as follows: active = growth percent below 10; inactive = the rest.
Assign a class; possible classes are yes = active, no = inactive

Worked examples follow.
COc1cc(OC)cc(-c2ccc(-c3ccc(C(=N)N)cc3)s2)c1: yes
C=CCSc1nnc(COc2ccc3c(C)c(Cc4ccccc4)c(=O)oc3c2C)o1: no
CCC(C)C1NC(=O)C(CC(C)C)NC(=O)C(C)NC(=O)C(C(C)C)NC(=O)C(CCCCN)NC(=O)C(CC(C)C)NC(=O)C(C(C)C)NC(=O)[C@H](C)NC(=O)C(C(C)CC)NC(=O)C(CCCN=C(N)N)NC(=O)C(CCCCN)NC(=O)C(CCCN=C(N)N)NC(=O)C(CCCCN)NC(=O)C([C@H](C)CC)NC(=O)C(CCCCN)NC1=O (stereo not given in full): no
CCCCCCNC(=O)Oc1ccc(/C(=C(/C)Cc2ccc(OC)cc2)c2ccc(OCCN(C)C)cc2)cc1: no

Lookup: What call does the record list for OC(c1ccccc1)(c1ccccc1)C(F)(F)F ?
Found: no

Lookup: I would be grateful if you could indicate the recorded call for N=C(N)c1ccc(-c2ccc(-c3cc(Cl)cc(Cl)c3)s2)cc1 .
Found: yes

Lookup: Query: recorded result category for Nc1cc(N)c2nc(NCCc3ccc(Cl)c(Cl)c3)cnc2c1 in this test
Found: no

Lookup: Assay result, entry N#CCc1ncc(-c2ccc(C(F)(F)F)cc2)c(NC2CCCCCC2)n1 — outcome?
Found: no

Lookup: What was the test verdict on CCOC(=O)C(C)C(C)(O)c1ccccc1 (stereo not given) ?
Found: no

Lookup: What outcome does the record of this test show for CC(=O)O.[In] ?
Found: no

Lookup: Look up the recorded call for c1ccc(Nc2ccccn2)cc1 in this test.
Found: no

Lookup: GET /call?item= COc1ccc(/C=C/C(=O)/C=C/c2cc3ccccc3[nH]c2=O)cc1 returns the recorded outcome of this test.
Found: no

Lookup: Dear colleague, could you share the recorded outcome for Nc1ncn([C@@H]2O[C@H](CO)[C@@H](O)C2(F)F)c(=O)n1 when you have a moment?
Found: no

Lookup: For CCCCCCCCCc1cc[n+](CC(=O)c2ccc([N+](=O)[O-])cc2)cc1 , which call appears in the assay record?
Found: yes

Lookup: Per the records of this test, what outcome belongs to COC(=O)c1cc(O)c2cc3c(cc2c1-c1cc(OC)c(OC)c(OC)c1)OCO3 ?
Found: no
